Tested on: murine cell line 3T12
experimental details: Sublethal concentration, Tryptan blue staining, 3T12 cells
Format: cell-based
conditions: transformed, immortalized mouse fibroblast cells, thirty minutes at 37° C., highest concentration with at least one nucleus not stained
Description: Also shown in Table 1 are sublethal concentrations for some of the peptides against the murine cell lines 3T3 and 3T12. Dilutions of peptide were prepared over a range of concentrations. Equal volumes of peptide solution and 250-750 murine cells were mixed together. […] (Blank entries in Table 1 correspond to assays that had not been completed as of the date this application is being filed. Values for those entries will be determined in future assays performed in the same manner.) […]
readout type: Sublethal Concentration, 3T12 (µM)
Just the number in µM, nothing appended.

Here are 2 substances together with their reported answers.
(KLGKKLG)3 (KLGKKLGKLGKKLGKLGKKLG)	565
(KLAKKLA)4 (KLAKKLAKLAKKLAKLAKKLAKLAKKLA)	52

**Query** What does the record list as Sublethal Concentration, 3T12 for (KLAKKLA)3 (KLAKKLAKLAKKLAKLAKKLA) ?
**Result** 17

###

System: murine cell line 3T3
experimental details: Sublethal concentration, Tryptan blue staining, 3T3 cells
Format: cell-based
conditions: healthy Swiss mouse fibroblast cells, thirty minutes at 37° C., highest concentration with at least one nucleus not stained
readout type: Sublethal Concentration, 3T3 (µM)
Just the number in µM, nothing appended.

Here are 2 substances together with their reported answers.
(KLGKKLG)3 (KLGKKLGKLGKKLGKLGKKLG)	565
(KLAKKLA)3 (KLAKKLAKLAKKLAKLAKKLA)	9

Could you now consider this next substance?
**Query** What does the record list as Sublethal Concentration, 3T3 for (KLAKKLA)4 (KLAKKLAKLAKKLAKLAKKLAKLAKKLA) ?
**Result** 13
